# study target: rat FAAH (Rattus norvegicus)
# Construct: made in house; host or cells: E. coli
# Sequence (P97612 whole entry): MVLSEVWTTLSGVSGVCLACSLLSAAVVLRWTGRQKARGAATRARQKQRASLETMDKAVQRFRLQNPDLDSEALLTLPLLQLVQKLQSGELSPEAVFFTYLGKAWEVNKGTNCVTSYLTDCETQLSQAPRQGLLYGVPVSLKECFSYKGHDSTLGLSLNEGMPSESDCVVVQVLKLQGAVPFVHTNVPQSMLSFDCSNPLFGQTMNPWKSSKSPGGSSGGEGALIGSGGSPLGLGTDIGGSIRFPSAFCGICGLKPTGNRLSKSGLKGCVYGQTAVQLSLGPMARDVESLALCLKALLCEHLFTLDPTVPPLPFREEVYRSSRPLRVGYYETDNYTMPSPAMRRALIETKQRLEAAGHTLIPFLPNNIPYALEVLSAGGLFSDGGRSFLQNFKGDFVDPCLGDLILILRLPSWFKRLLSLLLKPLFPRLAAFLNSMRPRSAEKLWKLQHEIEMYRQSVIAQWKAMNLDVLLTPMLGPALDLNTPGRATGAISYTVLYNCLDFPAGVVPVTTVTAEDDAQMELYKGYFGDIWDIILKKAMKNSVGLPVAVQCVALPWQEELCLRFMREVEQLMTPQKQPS
# procedure details: FAAH assay, rat FAAH enzyme inhibition (kinact/Ki)
# Assay type: biochemical
# study conditions: oleamide substrate 50 μM, 30° C., read-out: rFAAH kinact/Ki
// label = True if kinact/KI is not less than 2000 M⁻¹ s⁻¹, otherwise False

compound	study target	label value
Cn1nnnc1NC(=O)N1CCC2(CC1)CC(c1cccc(C(F)(F)F)c1)C2	rat FAAH (Rattus norvegicus)	True
Cc1noc(NC(=O)N2CCC3(CC2)CC(c2cccc4c2OC(F)(F)O4)C3)c1C	rat FAAH (Rattus norvegicus)	False
O=C(Nc1nnc(-c2cccc(Cl)c2)o1)N1CCC2(CC1)CC(c1cccc(OC(F)(F)F)c1)C2	rat FAAH (Rattus norvegicus)	True
Cc1noc(NC(=O)N2CCC3(CC2)CC(c2cccc(Cl)c2)C3)c1C	rat FAAH (Rattus norvegicus)	True
Cc1noc(NC(=O)N2CCC3(CC2)CC(c2cc(Cl)ccc2F)C3)c1C	rat FAAH (Rattus norvegicus)	False
Cc1cccc(C2CC3(CCN(C(=O)Nc4onc(C)c4C)CC3)C2)c1	rat FAAH (Rattus norvegicus)	False
Cn1nnnc1NC(=O)N1CCC2(CC1)CC(c1noc(-c3ccc(C(F)(F)F)cc3)n1)C2	rat FAAH (Rattus norvegicus)	False
Cn1nnnc1NC(=O)N1CCC2(CC1)CC(c1cccc(Oc3ccc(C(F)(F)F)cn3)c1)C2	rat FAAH (Rattus norvegicus)	True

Hi, just wondering whether `CCn1nnnc1NC(=O)N1CCC2(CC1)CC(c1cccc(OC(F)(F)F)c1)C2` shows kinact/KI of 2000 M⁻¹ s⁻¹ or higher.
True

Hello, I need to know if `Cc1noc(NC(=O)N2CCC3(CC2)CC(c2cccc(-c4cccc(F)c4)c2)C3)c1C` has measured kinact/KI not below 2000 M⁻¹ s⁻¹. Thanks!
False

Kindly determine if kinact/KI recorded for `Cc1noc(NC(=O)N2CCC3(CC2)CC(c2cccc(F)c2F)C3)c1C` is above or exactly 2000 M⁻¹ s⁻¹.
False

Form field: kinact/KI at least 2000 M⁻¹ s⁻¹? Entry: `Cc1noc(NC(=O)N2CCC3(CC2)CC(c2cccc(OC(F)(F)F)c2)C3)c1C`
True

Identify whether the reported kinact/KI of the following compound is 2000 M⁻¹ s⁻¹ or greater: Cc1noc(NC(=O)N2CCC3(CC2)CC(c2ccc(F)c(Cl)c2)C3C)c1C (centres unmarked)
False

Check the entry `Cc1noc(NC(=O)N2CCC3(CC2)CC(c2noc(-c4ccc(C(F)(F)F)cc4)n2)C3)c1C` : does kinact/KI equal or exceed 2000 M⁻¹ s⁻¹?
False

Check if kinact/KI >= 2000 M⁻¹ s⁻¹ (inclusive). Item: `Cn1nnnc1NC(=O)N1CCC2(CC1)CC(c1ccc(F)c(Cl)c1)C2`
True

Does the reported kinact/KI for `Cc1noc(NC(=O)N2CCC3(CC2)CC(F)(c2cccc(OC(F)(F)F)c2)C3)c1C` fall at or above the 2000 M⁻¹ s⁻¹ mark?
False

These data points were gathered from patent US20100113465A1.
